Recorded values, source PubChem BioAssay (NCI).

Tested on: LOX IMVI melanoma
Assay: NCI tumour cell line growth inhibition, 48 h; in the data active means GI50 below about 0.43 µM; inactive means the rest
Would you mind answering with one of these outcomes? true for active, false for inactive

**Q:** Called result for Nc1ccc(/C=C/c2ccc3ncccc3c2)cc1
**A:** false

**Q:** # lookup: test call for COC(=O)c1cc2ccc(O)c(O)c2cn1
**A:** false

**Q:** Recorded call for CN(C)CCC(N)(P(=O)([O-])[O-])P(=O)([O-])[O-].N.N.[Pt+2] ?
**A:** false

**Q:** Per the records of this test, what outcome belongs to COC(=O)N[C@H]1CCc2cc(OC)c(OC)c(OC)c2-c2ccc(SC)c(=O)cc21 ?
**A:** true

**Q:** What did this assay record as the result for ClC1=C(Cl)C(Cl)(C2(Cl)C(Cl)=C(Cl)C(Cl)=C2Cl)C(Cl)=C1Cl ?
**A:** true

**Q:** Test call, this compound: COc1ccc(-c2csc3c2-n2cccc2C3=O)cc1
**A:** true

**Q:** // outcome(item) with item = COc1ccc(-c2nc3sc(-c4cc(OC)c(OC)c(OC)c4)nn3c2/C=C2/C(=O)Nc3ccc(F)cc32)cc1
**A:** false

**Q:** Please let me know the test result on file for O=C(N/N=C/c1ccc(Cl)cc1)c1ccc(NC(=O)c2ccccn2)cc1 .
**A:** false

**Q:** What outcome does the record of this test show for CCC(=C(c1ccc(OCCN2CCCCC2)cc1)c1ccc(OCCN2CCCCC2)cc1)c1ccc(Cl)cc1 ?
**A:** false

**Q:** What did this assay record as the result for CN(C)CCNC(=O)c1cc2c3cc(Cl)ccc3[nH]c2c2ncccc12 ?
**A:** false

**Q:** What outcome does the record of this test show for O=C([CH-]C(=O)c1ccccc1)c1ccccc1.O=C([CH-]C(=O)c1ccccc1)c1ccccc1.O=C([CH-]C(=O)c1ccccc1)c1ccccc1.[Ga+3] ?
**A:** false
